# TESTED ON: T1, PC1, P29120
# T1 chain: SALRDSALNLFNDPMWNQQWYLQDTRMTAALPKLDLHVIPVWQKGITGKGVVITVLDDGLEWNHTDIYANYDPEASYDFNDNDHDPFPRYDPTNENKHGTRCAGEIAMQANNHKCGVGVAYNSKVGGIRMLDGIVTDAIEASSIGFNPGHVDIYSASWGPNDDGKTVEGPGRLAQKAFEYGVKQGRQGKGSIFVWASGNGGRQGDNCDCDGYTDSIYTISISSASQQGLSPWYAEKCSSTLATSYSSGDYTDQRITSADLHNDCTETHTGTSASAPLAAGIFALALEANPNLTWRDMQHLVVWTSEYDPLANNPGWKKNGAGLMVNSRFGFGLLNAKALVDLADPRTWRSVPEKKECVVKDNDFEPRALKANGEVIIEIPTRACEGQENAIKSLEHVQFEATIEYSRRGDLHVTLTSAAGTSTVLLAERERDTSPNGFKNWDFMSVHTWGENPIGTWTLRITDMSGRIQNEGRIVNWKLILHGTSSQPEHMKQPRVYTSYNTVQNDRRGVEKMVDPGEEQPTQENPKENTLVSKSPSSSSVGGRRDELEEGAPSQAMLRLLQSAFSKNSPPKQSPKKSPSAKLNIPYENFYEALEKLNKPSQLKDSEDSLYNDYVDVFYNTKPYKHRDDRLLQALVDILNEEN
# COND: modification not given
pKi: −log10 of the molar value.
VALUE TYPE: pKi

> print(dat)
                     binder  value.type  assay.result
1  RRRRRR [Hexa-L-arginine]         pKi          5.41

Reference source for all entries: patent US7033991
